Consider the following compounds and their measured IC50 readings.
tested on: HCV replicon; type: cell-based
MEASURED ATTRIBUTE: IC50

> print(dat)
                                   compound  assay.value
1  CCn1c(-c2ccc(NC(=O)N3CCCC3)cc2)c(C#N)c2ccc(OC)cc21  0.5 to 2 µM
2  CCOc1ccc2c(C#N)c(-c3ccc(NC(=O)OCC4CCCO4)cc3)n(C3CCC3)c2c1 (stereo not shown)     < 0.5 µM
3  CCCNC(=O)Nc1ccc(-c2c(C#N)c3ccc(OCC)cc3n2CC(C)C)cc1  0.5 to 2 µM
4  CCOc1ccc2c(C#N)c(-c3ccc(N(CC)CC)cc3)n(C3CC3)c2c1  0.5 to 2 µM
5  CCn1c(-c2ccc(NS(=O)(=O)C3CC3)cc2)c(C#N)c2cc3c(cc21)OCO3  0.5 to 2 µM
6  CCCCOC(=O)Nc1ccc(-c2c(C#N)c3cc(OCC)ccc3n2C2CCC2)cc1     < 0.5 µM
7  CCCNC(=O)Nc1ccc(-c2c(C#N)c3ccc(OCc4cccnc4)cc3n2CC)cc1     < 0.5 µM
